- PROCEDURE SUMMARY: FBMN analysis of short peptides in small intestine contents and serum after oral DHG
- CONDITION SUMMARY: small intestine contents, 30 min after oral DHG, C57 mice; FBMN feature intensity, peptides smaller than 690 Da
Square brackets hold non-standard residues; d marks the D form. Peptide text beside a SMILES is read from it. pGlu = O=C1CC[CH](C(=O)O)N1
Recorded Peptide signal (feature intensity) in the small intestine, 30 min, one value per entry.
Reply briefly: the number, and no unit.

Below: 6 compounds and their reported Peptide signal (feature intensity) in the small intestine, 30 min.
>  <COMPOUND>
CC(C)C[C@H](NC(=O)[C@@H](N)[C@@H](C)O)C(=O)O [Thr-Leu] (H-Thr-Leu-OH)

>  <OBSERVED>
0.00E+00

$$$$
>  <COMPOUND>
CC(C)CC(N)C(=O)NC(C(=O)O)C(C)C (stereo not drawn) [Leu-Val] (H-Leu-Val-OH; configuration not given here)

>  <OBSERVED>
4.22E+06

$$$$
>  <COMPOUND>
CSCCC(NC(=O)C1CCC(=O)N1)C(=O)O (stereo not shown) [PyroGlu-Met] ([pGlu]-Met-OH; configuration not given here)

>  <OBSERVED>
4.70E+06

$$$$
>  <COMPOUND>
CC(C)[C@H](NC(=O)CN)C(=O)O [Gly-Val] (H-Gly-Val-OH)

>  <OBSERVED>
0.00E+00

$$$$
>  <COMPOUND>
CC(C)CC(NC(=O)C(N)C(C)C)C(=O)O (stereo not drawn) [Val-Leu] (H-Val-Leu-OH; configuration not given here)

>  <OBSERVED>
2.94E+06

$$$$
>  <COMPOUND>
CC(C)C[C@H](N)C(=O)N[C@@H](C)C(=O)O [Leu-ala] (H-Leu-Ala-OH)

>  <OBSERVED>
1.85E+06

$$$$

Sure, the documented Peptide signal (feature intensity) in the small intestine, 30 min for CSCC[C@H](N)C(=O)N[C@@H](Cc1ccccc1)C(=O)O [Met-Phe] (H-Met-Phe-OH) is 0.00E+00

Sure, the documented Peptide signal (feature intensity) in the small intestine, 30 min for O=C1N[C@@H](Cc2ccccc2)C(=O)N2C[C@@H](O)C[C@@H]12 is 1.19E+07

Sure, the documented Peptide signal (feature intensity) in the small intestine, 30 min for N[C@@H](CC(=O)O)C(=O)N[C@@H](Cc1ccccc1)C(=O)O [Asp-Phe] (H-Asp-Phe-OH) is 3.76E+07

These measurements were taken from paper PMC12616683.
